Assay: antimalarial activity against Dd2 strain (AID 2302);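 note: 0% = DMSO untreated growth and 100% = chloroquine plus artemisinin killed control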
Conditions: P. falciparum Dd2 in RBCs, LDH growth readout, 72 h; at 2 µM
Calls of active or inactive are those of the source.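 Rule for the calls: active = growth inhibition above 50% at the single 2 µM test dose, taken to imply half-maximal potency below 2 µM; inactive = the rest.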
Returns: one label drawn from active, inactive

{"Compound": "CC(Cc1ccc(OCCN2CCN(c3cccc(Cl)c3)CC2)cc1)NCC(O)c1cccc(Cl)c1 (centres undefined)", "Category": "active"}

Write down the call the test reported for this compound. Item: CC(O)C1CCCCN1C(=O)c1cccc(-c2ccc(-c3nc4ccccc4[nH]3)s2)c1 (centres undefined)
inactive

Field: outcome | Entry: c1ccc(-c2ccc3c(Nc4ccc5[nH]ccc5c4)ccnc3c2)nc1
active

Assay result, entry O=C(CC1SC(N2N=C(c3cccs3)CC2c2ccccc2)=NC1=O)Nc1ccccc1F (centres undefined) — outcome?
active

Check the results log: what was the call for CCNC(=O)Nc1cccc(-c2cccc(-c3nc4ccc(C(F)(F)F)cc4[nH]3)c2)c1 ?
inactive

###

Test: HepG2 cytotoxicity, primary screen, cytotoxicity control for P. falciparum antimalarial project, cell-based, ATP luminescence (AID 2303);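 note: 0% = DMSO wells and 100% = digitonin-killed cells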
Conditions: HepG2 viability, 24-48 h, at 10 µM, active compounds read high
The source made the active and inactive calls.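 The calls were made as follows: active = inhibition above 50%; inactive = the rest.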
Provide the recorded inhibition for the entries that follow.

{"Compound": "N#Cc1ccc(NC(=NCCc2c[nH]c3ccccc23)Nc2ccc(-c3ccccc3)cc2)c(O)c1", "inhibition": "6% (inactive)"}
{"Compound": "Cc1ccc(N2CCN(CCCCNC(=O)c3ccc(NC(=O)c4ccc(Cl)cc4)cc3)CC2)c(C)c1", "inhibition": "30% (inactive)"}
{"Compound": "COc1ccc(Br)cc1/C=C/C(=O)Nc1cccc(C2CCN(C)CC2)c1", "inhibition": "44% (inactive)"}
{"Compound": "CCOc1cc(C)ccc1C1CCN(CCN2CCC(CNC(=O)c3ccc(-c4ccc(C(F)(F)F)cc4)cc3)CC2)CC1", "inhibition": "53% (active)"}
{"Compound": "CN(C)CCNC(=O)c1ccc(-c2ccc3c(Nc4ccccc4)c(C(N)=O)cnc3c2)cc1", "inhibition": "9% (inactive)"}

Provide the reported inhibition of each entry below, same order.
1. COc1c(Br)cc(Br)cc1C(C)=O
2. CC(C)(C)c1ccc(CNC(=O)c2cc(CNC3CCC(N)CC3)ccc2O)cc1 (centres undefined)
3. O=S(=O)(c1ccccc1)C1CC1
4. Cc1cc(-c2ccc(CNCc3ccsc3)cc2)ccc1S(=O)(=O)NCCN1CCCC1

3% (inactive)
1% (inactive)
-3% (inactive)
57% (active)

###

Biological target: L-lactate dehydrogenase (Plasmodium falciparum (isolate CDC / Honduras))
Experiment: PfLDH activity inhibition – cell lysate, 3D7 strain, counter-screen for P. falciparum growth inhibition project (AID 2304);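 note: 0% = vehicle and 100% = reference inhibitor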
Settings: P. falciparum 3D7 crude extract, LDH APAD/NBT absorbance; at 2 µM; active compounds read high
The source made the active and inactive calls. No rule for the calls is given here.
Experimental endpoint: inhibition

{"Molecule": "Clc1ccc(-c2ncc(-c3ccncc3)[nH]2)cc1Cl", "Assay system": "L-lactate dehydrogenase (Plasmodium falciparum (isolate CDC / Honduras))", "Experimental endpoint": "inhibition", "Measured result": "-5% (inactive)"}
{"Molecule": "COc1ccc(CNc2nccc3ccc(-c4ccc(N)nc4)cc23)cc1", "Assay system": "L-lactate dehydrogenase (Plasmodium falciparum (isolate CDC / Honduras))", "Experimental endpoint": "inhibition", "Measured result": "2% (inactive)"}
{"Molecule": "Oc1ccc(CCNc2nc(NCc3ccccc3-c3ccc(C(F)(F)F)cc3)nc(N3CCCNCC3)n2)cc1", "Assay system": "L-lactate dehydrogenase (Plasmodium falciparum (isolate CDC / Honduras))", "Experimental endpoint": "inhibition", "Measured result": "0% (inactive)"}
{"Molecule": "Cc1ccc(Oc2ccccc2NC(=O)CCc2nc3ccccc3c(=O)[nH]2)cc1", "Assay system": "L-lactate dehydrogenase (Plasmodium falciparum (isolate CDC / Honduras))", "Experimental endpoint": "inhibition", "Measured result": "-3% (inactive)"}

Give one value of inhibition per listed molecule.
1. CS(=O)(=O)CCNCc1nc(-c2ccc3ncnc(Nc4ccc(OCc5ccccc5)c(Cl)c4)c3c2)cs1
2. COc1ccc2nccc([C@@H](O)CN3CCC(NCc4ccc5cccc(O)c5n4)CC3)c2c1
3. CCN(CC)CCN(Cc1ccc(-c2ccc(C(F)(F)F)cc2)cc1)C(=O)Cn1c(CCc2cc(F)c(F)cc2F)nc(=O)c2ccccc21
4. O=C(Nc1ccc(Cl)cc1)c1ccc(CN2CCCN(Cc3cccc(O)c3)CC2)cc1
5. CN1CCN(Cc2ccc(-c3ccc4c(Nc5ccc(Oc6ccccn6)cc5)ccnc4c3)o2)CC1

1. 2% (inactive)
2. 1% (inactive)
3. -4% (inactive)
4. 4% (inactive)
5. -3% (inactive)

Working through the 6 molecules below one at a time, give inhibition for each.
1. Cc1c(S(=O)(=O)Nc2ccc3nccc(N4C[C@@H](C)N[C@@H](C)C4)c3c2)sc2ccc(Cl)cc12
2. CN(Cc1ccccc1)C(=O)CCNS(=O)(=O)c1cc(Br)cnc1N
3. Cc1cc(N2CCN(C(=O)OC(C)(C)C)CC2)ccc1N
4. COCc1ccccc1C(=O)NCCOc1cc(C)cc(C)c1
5. CCOc1cc(C(=O)NCCc2ccc(Cl)c(Cl)c2)ccc1-c1nc2ccc(Cl)cc2[nH]1
6. Cc1cccc2[nH]c(-c3cccc(-c4cccc(NC(=O)NCc5ccccc5)c4)c3)nc12

1: 5% (inactive); 2: 4% (inactive); 3: -2% (inactive); 4: 5% (inactive); 5: -4% (inactive); 6: 5% (inactive)

State recorded inhibition for all listed molecules.
1. CCc1cn2c3c(cc(C(=O)N[C@@H](Cc4ccccc4)[C@H](O)CNCc4ccccc4)cc13)N(C)S(=O)(=O)CC2
2. Cc1ccc(-c2cc(C(=O)Nc3ccc(S(=O)(=O)N4CCCCC4C)cc3)[nH]n2)c(O)c1 (stereo not given)
3. FC(F)(F)Oc1cccc(CNc2noc(-c3sccc3Br)n2)c1
4. COc1ccc2nccc([C@@H](O)CN3CCC(NC(=O)c4ccc5cc[nH]c5c4)CC3)c2c1

1: 1% (inactive); 2: 0% (inactive); 3: -3% (inactive); 4: -6% (inactive)

Fill in inhibition for record COc1ccc(-c2ccc(NC(=O)c3ccc(C#N)cc3)cc2)cc1CNC(C)C
-3% (inactive)
